Each entry below carries its recorded AC50.
tested on: MALME3 melanoma viability, CellTiter-Glo luminescence, 24 h; test: growth inhibition of MALME3 cells – cell-based, CellTiter-Glo, cherry-picked, orthogonal assay for MITF inhibitor project, dose response (AID 493191)

- Compound: "O=C(CCl)Nc1cccc(Oc2ccccc2)c1"
  Measured target: "MALME3 melanoma viability, CellTiter-Glo luminescence, 24 h"
  Endpoint value: "28.7 µM"

# value lookup — system MALME3 melanoma viability, CellTiter-Glo luminescence, 24 h, readout AC50, item Cc1c(C(=O)Nc2ccc(S(=O)(=O)N(C)C3CCN(C)CC3)cc2)oc2c(Cl)cccc12
26.4 µM

Please answer likewise for CCc1ccc(NC2=CC(=O)C(=O)c3ccccc32)cc1
6.91 µM

Please answer likewise for CNC(=O)COC(=O)c1ccccc1C(=O)c1ccc(Cl)c([N+](=O)[O-])c1
23.8 µM

Please answer likewise for O=C(N/N=C\c1ccc([N+](=O)[O-])o1)C1COc2ccccc2O1 (configuration not stated)
32.7 µM

* * *

test system: MALME3 melanoma viability, CellTiter-Glo luminescence, 24 h; assay: growth inhibition of MALME3 cells – cell-based, CellTiter-Glo, cherry-picked, orthogonal assay for MITF inhibitor project, dose response (AID 493191)
Each entry below carries its recorded AC50.

- Compound: "Oc1c(CN2CCCCC2)cc(COCc2ccccc2)c2cccnc12"
  Endpoint value: "10.4 µM"
- Compound: "O=C(N/N=C/c1ccc([N+](=O)[O-])o1)c1ccccc1-n1cccc1"
  Endpoint value: "32.1 µM"
- Compound: "CCOC(=O)c1cc2sccc2n1CC(=O)N1c2ccccc2CC1C (centres undefined)"
  Endpoint value: "25 µM"
- Compound: "O=C(N/N=C/c1ccc([N+](=O)[O-])s1)c1ccccc1Br"
  Endpoint value: "26.9 µM"

Recorded AC50 of O=C(Nc1ccc(S(=O)(=O)NC2=NCCCCC2)cc1)c1ccc([N+](=O)[O-])s1 , please.
18.4 µM

Please answer likewise for O=C1CN(C(=O)Cn2ncc(Cl)c(Cl)c2=O)c2ccccc2N1
15.4 µM

Please answer likewise for Cc1cc(Br)ccc1NC(=O)CNC(=O)Cn1ncc(Cl)c(Cl)c1=O
5.54 µM

Please answer likewise for CC1CCN(CC(CS(=O)(=O)c2ccc([N+](=O)[O-])cc2)N2CCC(C)CC2)CC1 (centres undefined)
18.9 µM

Please answer likewise for Cc1ccc2[nH]c(=O)c(CN(CCCN(C)C)C(=O)Nc3cccc(Cl)c3)cc2c1
24.9 µM

Please answer likewise for CCN(CC)CCNC(=O)C1CCN(S(=O)(=O)c2c(C)noc2/C=C/c2ccccc2F)CC1
30.4 µM

Please answer likewise for CCN(CC)CCn1nc2c3c(cccc3c1=O)-c1ccccc1-2
28.4 µM

Please answer likewise for O=C1c2ccccc2C(=O)c2c1ncn2-c1ccccc1
19.2 µM

* * *

Each entry below carries its recorded AC50.
system: MALME3 melanoma viability, CellTiter-Glo luminescence, 24 h; test: growth inhibition of MALME3 cells – cell-based, CellTiter-Glo, cherry-picked, orthogonal assay for MITF inhibitor project, dose response (AID 493191)

- Record smiles: "O=C(Nc1ccccc1N1CCOCC1)c1ccc([N+](=O)[O-])s1"
  AC50: "30.9 µM"

Recorded AC50 of O=C(Cn1ncc(Cl)c(Cl)c1=O)NCC1CCCCC1 , please.
9.94 µM

Please answer likewise for CS(=O)(=O)N1CCN(c2ccc(NC(=O)c3ccc([N+](=O)[O-])o3)cc2)CC1
16.7 µM

Please answer likewise for O=C(Nc1ccc(F)cc1)c1nc(S(=O)(=O)Cc2ccccc2)ncc1Cl
12 µM

Please answer likewise for Cc1cccc(NC(=O)CNC(=O)Cn2ncc(Cl)c(Cl)c2=O)c1C
14.1 µM
